Readout Label: melting point

Would you please look over these solved cases?
# Compound, melting point
rows = [
    ("CCn1c(=O)c2c(ncn2CCCCC(C)=O)n(CC)c1=O", "68 to 69 °C"),
    ("CC(C)C(=O)c1ccc(N2CCN(C)CC2)cc1", "74 to 76 °C"),
    ("CCN1CCN(Cc2cc(-c3ccc4c(Nc5cc(OC)c(Cl)cc5Cl)c(C#N)cnc4c3)cs2)CC1", "118 to 120 °C"),
]

Here's the next entry for you.
melting point measured on O=C(O)c1ccc(O)c(I)c1 = 163 °C

---

Readout Label: melting point

Would you please look over these solved cases?
# Compound, melting point
data = [
    ("C=C(C(=O)c1ccc(Cl)cc1)c1ccc(Cl)cc1Cl", "90 to 93 °C"),
    ("O=C(O)Cc1c(C(=O)c2ccc(Cl)cc2Cl)[nH]c2cc(Cl)ccc12", "190 to 192 °C"),
    ("O=[N+]([O-])C=C1SCCN1Cc1ccco1", "190 to 192 °C"),
    ("O=C1C(c2nc3c(cc2O)OCO3)c2ccccc2N1Cc1ccc(C(F)(F)F)o1 (centres undefined)", "161 to 163 °C"),
    ("Fc1ccc2c(c1)Oc1ccccc1S2", "77.5 to 79 °C"),
    ("Cc1cc(NCCO)c2[nH]nc(-c3ccc(Cl)cc3)c2n1", "222 to 224 °C"),
    ("Cc1nn(-c2cccnc2)c(-c2ccccc2)c1CC(=O)O", "197 to 199 °C"),
    ("CCCCS(=O)(=O)NC1Cc2ccc(C3=NNC(=O)CC3)cc2C1 (single isomer, unassigned; (+))", "173 to 174 °C"),
]

Here's the next entry for you.
melting point measured on CCOC(=O)c1c(-c2cccs2)nn(CC)c(=O)c1Nc1cccnc1 = 124 to 125 °C

Reference source for all entries: a melting point compilation (Tetko et al.; mined from patent text by program, amines drawn as free bases though some values may be those of a salt)
